Please respond with reported Tm1 (° C.) for every item in the list.
test: Thermal stability by Differential Scanning Calorimetry; assay type: physicochemical; conditions: DSC; Fab 1 mg/ml
Answers are plain numbers, in °C.

// known answers, use as guide
{"MOLECULE": "26D5-75229-343-A10-Fab-SHORT: antibody Fab fragment; VH SEQ ID NO: 52, VL SEQ ID NO: 84; sequence in Table 3 (antibody, V domains shown) VH: EVQLVESGGGLIQPGGSLRLSCAASGFTVSSNAMSWVRQAPGKGLEWVSYIYPGGRTYYADSVKGRFTISRDNSKNTLYLQMNSLRAEDTAVYYCARAGFGGPDYWGQGTLVTVSS VL: DIQMTQSPSSVSASVGDRVTITCRASQGISSNLAWYQQKPGKAPKLLIYAASSLQSGVPSRFSGSGSGTDFTLTISSLQPEDFATYYCQQANQFPLTFGGGTKVEIK", "Tm1 (° C.), °C": 74.9}
{"MOLECULE": "26D5-75203-343-B09-Fab-SHORT: antibody Fab fragment; VH SEQ ID NO: 54, VL SEQ ID NO: 87; sequence in Table 3 (antibody, V domains shown) VH: EVQLVESGGGLIQPGGSLRLSCAASGFTVSSNAMSWVRQAPGKGLEWVSYIYPGGRTYYADSVKGRFTISRDNSKNTLYLQMNSLRAEDTAVYYCARAGFGGGDYWGQGTLVTVSS VL: DIQMTQSPSSVSASVGDRVTITCRASQGISSNLAWYQQKPGKAPKLLIYAASTLQSGVPSRFSGSGSGTDFTLTISSLQPEDFATYYCQQANEFPLTFGGGTKVEIK", "Tm1 (° C.), °C": 76.6}
{"MOLECULE": "26D5-75214-343-F06-Fab-SHORT: antibody Fab fragment; VH SEQ ID NO: 53, VL SEQ ID NO: 85; sequence in Table 3 (antibody, V domains shown) VH: EVQLVESGGGLIQPGGSLRLSCAASGFTVSSNAMSWVRQAPGKGLEWVSFIYPGGRTYYADSVKGRFTISRDNSKNTLYLQMNSLRAEDTAVYYCARAGFGGPDYWGQGTLVTVSS VL: DIQMTQSPSSVSASVGDRVTITCRASQGISSNLAWYQQKPGKAPKLLIYAASSLQSGVPSRFSGSGSGTDFTLTISSLQPEDFATYYCQQANEFPLTFGGGTKVEIK", "Tm1 (° C.), °C": 75.5}
{"MOLECULE": "26D5-75202-343-A09-Fab-SHORT: antibody Fab fragment; VH SEQ ID NO: 54, VL SEQ ID NO: 86; sequence in Table 3 (antibody, V domains shown) VH: EVQLVESGGGLIQPGGSLRLSCAASGFTVSSNAMSWVRQAPGKGLEWVSYIYPGGRTYYADSVKGRFTISRDNSKNTLYLQMNSLRAEDTAVYYCARAGFGGGDYWGQGTLVTVSS VL: DIQMTQSPSSVSASVGDRVTITCRASQGIYSNLAWYQQKPGKAPKLLIYAASSLQSGVPSRFSGSGSGTDFTLTISSLQPEDFATYYCQQANEFPLTFGGGTKVEIK", "Tm1 (° C.), °C": 75.3}

Next:
Value of measured Tm1 (° C.) for the entry 26D5-75768-348-A10-Fab-SHORT: antibody Fab fragment; VH SEQ ID NO: 56, VL SEQ ID NO: 89; sequence in Table 3 (antibody, V domains shown) VH: EVQLVESGGGLIQPGGSLRLSCAASGFTVSSNAVSIVRQAPGKGLEWVAYIYPGGRTYYADSVKGRFTISRDNSKNTLYLQMNSLRAEDTAVYYCTIGGFGGGDYWGQGTLVTVSS VL: DIQMTQSPSSVSASVGDRVTITCRASQGISSNNQWYQQKPGKAPKLLIYYASSLQSGVPSRFSGSGSGTDFTLTISSLQPEDFATYYCQQGNEFPLTFGGGTKVEIK : 66.3

This collection of values is drawn from patent US12065505B2.
